The values you see were collected from patent US20040048834A1.

- System: PC-3
- procedure-text: Cytotoxicity MTS, solid tumors, Prostate PC-3
- Type: cell-based
- condition-description: 4-Parameter Curve Fit, NA = not active
pIC50: −log10 of the molar value.
Each entry gets false if its pIC50 stays under 5, and true if its pIC50 is 5 or above.

Examples from the recorded data:
Challenge: Please check the record CCCCCCCCCCCCCCCC[C@@H](O)[C@H](C)N [drawing 113] and state if its pIC50 is at or above 5.
Response given: true

Challenge: I'd appreciate it if you could say whether CCCCCCCCCCCCCC[C@@H](O)[C@H](C)N [drawing 115] has pIC50 at least equal to 5.
Response given: true

Challenge: Is it the case that CCCCCCCCCCCCCCCCC[C@@H](O)[C@H](C)N [drawing 114] has pIC50 reaching or exceeding 5?
Response given: true

---
Challenge: Reported pIC50 reaches at least 5 for CCCCCCCCCCCCCCC[C@@H](O)[C@@H](N)CF [drawing 122] ?
Response given: false

###

- System: DU145
- procedure-text: Cytotoxicity of spisulosine analogs, DU145 (after Berjeron et al)
- Format: cell-based
- condition-description: DU145; methodology after Berjeron et al; NA=not active; hydrochloride; read-out: Cytotoxicity IC50 DU145
Counter-ions that a name gives are not always drawn.
property: pIC50
As a rule, pIC50 stands for the negative log10 of the concentration, concentration in M.

Challenge: Answer with reported pIC50 of CCCCCCCCCCCCCCC[C@@H](O)[C@H](C)N [drawing 47, hydrochloride]
Response given: 7.51

###

- Test system: ARH-77
- procedure-text: Cytotoxicity MTS, leukemias/lymphomas, ARH-77
- Format: cell-based
- condition-description: 4-Parameter Curve Fit, NA = not active, read-out: Cytotoxicity IC50 Leukemia (Plasma cell) ARH-77
property: pIC50
Recall that pIC50 is obtained by taking minus log10 of the concentration measured in molar.

Challenge: Quote pIC50 reported for CCCCCCCCCCCCCCCC(O)C(C)N (stereo not shown) please.
Response given: 6.17

###

Item-by-item account of IC50
- Test system: SW 694
- procedure-text: Cytotoxicity MTS, solid tumors, Fibrosarcoma SW 694
- Type: cell-based
- condition-description: 4-Parameter Curve Fit, NA = not active
I only need the number, in µM, no unit after it.

Challenge: Write down IC50 measured for item CCCCCCCCCCCCCCC[C@@H](O)[C@@H](N)CC [drawing 116]
Response given: 7.57

Challenge: Consider the molecule CCCCCCCCCCCCCCCCC[C@@H](O)[C@H](C)N [drawing 114] . State its measured IC50.
Response given: 10.4

Challenge: Identify measured IC50 associated with CCCCCCCCCCCCCC[C@@H](O)[C@H](C)N [drawing 115]
Response given: 10.1

Okay, next one:
Challenge: Could you please provide reported IC50 for CCCCCCCCCCCCCCCC[C@@H](O)[C@H](C)N [drawing 113] ? Thanks!
Response given: 6.49

###

Recorded IC50 for the following molecules
- System: Y-79
- procedure-text: Cytotoxicity MTS, solid tumors, Retinoblastoma Y-79
- Assay type: cell-based
- condition-description: 4-Parameter Curve Fit, NA = not active
// return numeric value only (unit: µM, not printed)

Worked cases, answers included:
Challenge: Using the record for CCCCCCCCCCCCCCCC[C@@H](O)[C@H](C)N [drawing 113] , state its measured IC50.
Response given: 4.65

Challenge: Report measured IC50; entry is CCCCCCCCCCCCCCC[C@@H](O)[C@@H](N)CC [drawing 116]
Response given: 9.51

Challenge: Return IC50 (reported value) for this molecule: CCCCCCCCCCCCCCCC(=O)[C@H](C)N [drawing 118]
Response given: 12.1

# next molecule below
Challenge: Identify IC50 associated with the molecule CCCCCCCCCCCCCCC[C@@H](O)[C@@H](N)CF [drawing 122]
Response given: 1.65
